The following binders are listed with their measured IC50 of inhibition of IGF-1-induced proliferation (NCI-H838 cells) values.
- assayed-target: human IGF1R (insulin-like growth factor 1 receptor) on cells (human, UniProt P08069 31-1367)
- Sequence (P08069 31-1367 limits assumed): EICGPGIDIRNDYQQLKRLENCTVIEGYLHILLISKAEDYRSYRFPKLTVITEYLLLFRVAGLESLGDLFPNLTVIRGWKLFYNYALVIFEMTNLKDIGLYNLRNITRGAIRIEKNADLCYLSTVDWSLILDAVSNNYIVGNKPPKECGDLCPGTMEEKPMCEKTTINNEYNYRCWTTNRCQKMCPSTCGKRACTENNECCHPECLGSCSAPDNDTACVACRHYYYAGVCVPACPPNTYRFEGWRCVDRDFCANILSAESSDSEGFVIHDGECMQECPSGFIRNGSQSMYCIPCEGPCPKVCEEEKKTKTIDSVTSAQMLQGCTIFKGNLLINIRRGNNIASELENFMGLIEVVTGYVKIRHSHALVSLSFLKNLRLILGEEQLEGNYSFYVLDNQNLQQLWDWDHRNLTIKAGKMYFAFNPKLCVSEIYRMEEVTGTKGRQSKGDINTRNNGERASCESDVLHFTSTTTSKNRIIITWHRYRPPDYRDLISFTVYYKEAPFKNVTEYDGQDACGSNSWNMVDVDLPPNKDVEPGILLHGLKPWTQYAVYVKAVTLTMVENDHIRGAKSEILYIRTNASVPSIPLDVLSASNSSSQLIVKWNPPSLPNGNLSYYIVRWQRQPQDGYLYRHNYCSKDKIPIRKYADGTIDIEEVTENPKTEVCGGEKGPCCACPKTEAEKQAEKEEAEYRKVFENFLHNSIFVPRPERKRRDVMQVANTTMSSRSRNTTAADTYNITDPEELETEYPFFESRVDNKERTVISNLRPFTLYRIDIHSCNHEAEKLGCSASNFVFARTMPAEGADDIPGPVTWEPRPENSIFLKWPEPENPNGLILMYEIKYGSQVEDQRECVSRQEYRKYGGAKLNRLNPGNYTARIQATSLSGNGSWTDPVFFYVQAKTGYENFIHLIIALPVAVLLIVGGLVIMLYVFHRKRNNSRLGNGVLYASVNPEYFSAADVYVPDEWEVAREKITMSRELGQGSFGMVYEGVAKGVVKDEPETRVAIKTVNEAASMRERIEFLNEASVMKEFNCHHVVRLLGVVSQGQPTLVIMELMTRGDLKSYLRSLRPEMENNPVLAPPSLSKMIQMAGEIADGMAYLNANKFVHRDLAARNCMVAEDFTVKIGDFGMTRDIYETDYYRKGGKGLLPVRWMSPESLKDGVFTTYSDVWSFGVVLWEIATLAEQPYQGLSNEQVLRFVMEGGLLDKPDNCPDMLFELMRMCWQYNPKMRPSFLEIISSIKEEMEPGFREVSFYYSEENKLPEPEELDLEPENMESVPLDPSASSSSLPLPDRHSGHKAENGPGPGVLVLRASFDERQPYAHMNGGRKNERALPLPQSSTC
- assay: cell-based or functional assay

Below: 3 binders and their reported IC50 of inhibition of IGF-1-induced proliferation (NCI-H838 cells).
>>> value_observed("anti-IGF1R antibody 12D1 (antibody, human IgG1, V domains shown) VH: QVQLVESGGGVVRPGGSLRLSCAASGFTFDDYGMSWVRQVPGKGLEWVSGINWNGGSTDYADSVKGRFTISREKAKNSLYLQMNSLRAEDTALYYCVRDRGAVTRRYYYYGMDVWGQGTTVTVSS VL: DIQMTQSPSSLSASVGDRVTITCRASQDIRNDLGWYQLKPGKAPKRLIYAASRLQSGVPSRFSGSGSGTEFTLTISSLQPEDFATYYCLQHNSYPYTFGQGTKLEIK")
"0.064 nM"
>>> value_observed("anti-IGF1R antibody 10D1 (antibody, human IgG1, V domains shown) VH: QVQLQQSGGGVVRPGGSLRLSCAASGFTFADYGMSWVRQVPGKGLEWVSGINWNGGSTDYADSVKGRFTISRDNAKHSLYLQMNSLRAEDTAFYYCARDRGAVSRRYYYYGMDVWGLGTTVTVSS VL: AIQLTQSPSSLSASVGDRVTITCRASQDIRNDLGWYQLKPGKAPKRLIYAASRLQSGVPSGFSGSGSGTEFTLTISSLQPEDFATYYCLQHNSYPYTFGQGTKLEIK")
"0.14 nM"
>>> value_observed("anti-IGF1R antibody 10G1 (antibody, human IgG1, V domains shown) VH: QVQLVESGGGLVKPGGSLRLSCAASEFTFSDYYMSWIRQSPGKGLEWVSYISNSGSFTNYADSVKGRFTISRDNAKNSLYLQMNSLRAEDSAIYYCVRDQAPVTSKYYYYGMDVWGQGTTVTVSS VL: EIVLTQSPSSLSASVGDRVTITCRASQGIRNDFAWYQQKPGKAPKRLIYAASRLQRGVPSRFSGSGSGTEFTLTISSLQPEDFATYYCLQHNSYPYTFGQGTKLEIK")
"0.091 nM"

Then this binder:
Supply measured IC50 of inhibition of IGF-1-induced proliferation (NCI-H838 cells) of anti-IGF1R antibody 12A4 (antibody, V domains shown) VH: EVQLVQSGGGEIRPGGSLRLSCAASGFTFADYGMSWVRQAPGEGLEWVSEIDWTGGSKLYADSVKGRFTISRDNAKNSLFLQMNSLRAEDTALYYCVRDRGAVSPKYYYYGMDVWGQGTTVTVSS VL: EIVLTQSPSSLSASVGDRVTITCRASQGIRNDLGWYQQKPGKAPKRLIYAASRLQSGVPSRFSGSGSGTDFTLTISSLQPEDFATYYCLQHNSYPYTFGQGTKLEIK in your reply.
0.045 nM
